% double-positive cells vs WT by entry:
Molecular target: T1, mTfR-1 N277A on Expi293 cells (mouse, UniProt Q62351 1-763)
T1 construct: whole, on cells
T1 sequence (Q62351 whole entry N277A): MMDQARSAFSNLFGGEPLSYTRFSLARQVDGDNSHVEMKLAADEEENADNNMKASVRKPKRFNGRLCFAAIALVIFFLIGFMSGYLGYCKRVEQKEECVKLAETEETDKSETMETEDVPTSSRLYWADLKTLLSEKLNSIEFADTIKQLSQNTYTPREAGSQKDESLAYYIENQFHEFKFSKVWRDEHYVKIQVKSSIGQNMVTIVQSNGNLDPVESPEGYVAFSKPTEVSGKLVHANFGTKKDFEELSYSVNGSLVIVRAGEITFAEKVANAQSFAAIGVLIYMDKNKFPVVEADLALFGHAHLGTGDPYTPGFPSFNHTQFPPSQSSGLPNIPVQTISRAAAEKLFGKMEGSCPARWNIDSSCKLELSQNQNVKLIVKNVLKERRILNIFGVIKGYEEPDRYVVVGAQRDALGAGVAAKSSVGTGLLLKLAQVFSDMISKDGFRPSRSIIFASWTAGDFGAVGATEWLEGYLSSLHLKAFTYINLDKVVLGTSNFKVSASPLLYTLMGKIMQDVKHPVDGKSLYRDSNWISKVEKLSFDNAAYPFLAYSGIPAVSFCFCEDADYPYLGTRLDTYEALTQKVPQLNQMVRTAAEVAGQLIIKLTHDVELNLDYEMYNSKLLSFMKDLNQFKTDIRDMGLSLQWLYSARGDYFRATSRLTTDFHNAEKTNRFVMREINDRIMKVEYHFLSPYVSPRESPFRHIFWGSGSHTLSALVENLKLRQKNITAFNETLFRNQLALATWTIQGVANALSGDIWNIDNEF
Assay: FACS, transfected Expi293 cells
API: value field is a number in %; no unit string.

Clone C variant 13 VNAR-hFc (Fc fusion, not shown: a dimerising Fc or GST, also called Clone C v13; Clone C var; 13) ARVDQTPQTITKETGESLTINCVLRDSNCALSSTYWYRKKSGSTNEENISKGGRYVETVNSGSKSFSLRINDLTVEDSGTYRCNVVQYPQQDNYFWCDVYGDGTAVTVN = 84
Clone C VNAR-hFc fusion (Fc fusion, not shown: a dimerising Fc or GST, bivalent VNAR-Fc; also called Clone C-hFc) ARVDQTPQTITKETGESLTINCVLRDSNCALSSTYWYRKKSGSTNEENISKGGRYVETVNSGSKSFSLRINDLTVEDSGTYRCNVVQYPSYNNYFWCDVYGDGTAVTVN = 137
8D3 antibody (anti-mouse TfR-1 control; 8D3-hFc formatted antibody) (antibody, V domains shown) VH: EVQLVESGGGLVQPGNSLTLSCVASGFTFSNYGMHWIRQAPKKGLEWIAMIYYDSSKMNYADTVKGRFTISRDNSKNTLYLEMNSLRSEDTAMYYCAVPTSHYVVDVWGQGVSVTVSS VL: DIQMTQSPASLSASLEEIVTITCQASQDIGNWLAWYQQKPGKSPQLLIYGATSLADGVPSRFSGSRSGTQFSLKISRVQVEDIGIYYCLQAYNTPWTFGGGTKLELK = 56

Here is another binder to look at.
Record request: % double-positive cells vs WT value, item Clone C variant 18 VNAR-hFc (Fc fusion, not shown: a dimerising Fc or GST, also called Clone C v18; Clone C var; 18) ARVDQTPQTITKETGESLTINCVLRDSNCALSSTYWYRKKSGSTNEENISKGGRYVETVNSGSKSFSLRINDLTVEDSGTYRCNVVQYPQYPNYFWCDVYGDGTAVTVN
155
